# TESTED_TARGET: T1, human monomeric EGFR (EGFR.mmh) (human, UniProt P00533 25-647)
# T1 construct: Soluble monomeric EGFR construct
# EXPERIMENT: SPR 37C, mAb captured by anti-human Fc, EGFR.mmh analyte
Each record here notes measured koff.
Give just the numeric value; s⁻¹ need not be written.

Sample records with koff:
[[record]]
binder = "H1H171P (antibody, human IgG1, V domains shown, Human IgG1 Fc (H1H)) VH: QVQLVESGGGVVQPGRSLRLSCAASGFTFSIYGMNWVRQGPGKGLDWVAVISDDGSNKDYVDSVRGRFTISRDNSKNTLYLQMNSLSAEDTAVYYCAKDRITGTHYYGMDVWGQGTTVTVSS VL: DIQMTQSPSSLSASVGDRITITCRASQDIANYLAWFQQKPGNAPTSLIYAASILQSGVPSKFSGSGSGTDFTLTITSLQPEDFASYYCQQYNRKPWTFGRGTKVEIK"
observed = 0.00113

[[record]]
binder = "H1H155P (antibody, human IgG1, V domains shown, Human IgG1 Fc (H1H)) VH: QVQLVESGGGVVQPGRSLRLSCAASGFTFSIYGMHWVRQAPGKGLEWVTVISDDGSKKYYVDSVKGRFTLSRDNSKNTLYLQMNSLRAEDTAVYYCARDRITGTNWYGMDVWGQGTTVTVSS VL: DIQMTQSPSSLSASVGDRVTITCRASQDISNYLAWFQQKPGKAPKSLIFAASSLQSGGPSKFSGSGSGTDFTLTISSLQPEDFATYYCQQYNRYPFTFGPGTKVDIK"
observed = 0.000169

[[record]]
binder = "H1H102N (antibody, human IgG1, V domains shown, Tested in human IgG1 Fc format (H1H); also called H1M102N) VH: QVQLQESGPGLVQPSQTLSLTCTVSGGSVSSGDYYWSWIRQHPGKGLEWIGHIYYSGITYYNPSLESRVTITLDTSKNQFSLNLRSVTAADTAVHYCARTAIIGTMDNWGRGTLVTVSS VL: EIVMTQSPATLSVSPGERATLSCRASQSVSSNLAWYQQKPGQAPRLLIYDASTRATGFPARFSGSGSGTEFTLTISSLQSEDFAVYYCQQYNTWWTFGQGTKVEIK"
observed = 0.000943


Challenge: Bench note: what koff did H1H169P (antibody, human IgG1, V domains shown, Human IgG1 Fc (H1H)) VH: EVQLVESGGGLVQPGGSLRLSCAASRFTFSTYWMSWVRQAPGKGLEWVAKIKQDGSEKYYLDSVKDRFTISRDNAKNSLYLQMNSLRAEDTAVYYCASSITWYDYYYGMDVWGHGTTVTVSS VL: EIVLTQSPDFQSVTPKEKVTITCRASQSIGSNLHWYQQKPDQSPNLLIKFASQSFSGVPSRFSGSGSGTDFTLTINSLEAEDAATYYCHQTNFLPHTFGGGTKVEIK show?
Response given: 0.000869

Challenge: Bench note: what koff did H1H141P (antibody, human IgG1, V domains shown, Human IgG1 Fc (H1H)) VH: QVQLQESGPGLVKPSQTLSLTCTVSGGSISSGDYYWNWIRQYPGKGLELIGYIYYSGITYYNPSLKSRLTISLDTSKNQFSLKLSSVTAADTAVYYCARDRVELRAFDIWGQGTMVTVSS VL: DIQMTQSPSSLSASVGDRVTITCQASQDISNYLNWYQQKPGKAPKLLINDASNLETGVPSRFSGSGSGTDFTFTISSLQPEDIATYYCQHYDSLPLTFGQGTRLEIK show?
Response given: 0.000405
